Item-by-item account of pKi
# experimental.system: GST-tagged-Wee1 kinase (Homo sapiens, UniProt P30291)
# Sequence (P30291 whole entry): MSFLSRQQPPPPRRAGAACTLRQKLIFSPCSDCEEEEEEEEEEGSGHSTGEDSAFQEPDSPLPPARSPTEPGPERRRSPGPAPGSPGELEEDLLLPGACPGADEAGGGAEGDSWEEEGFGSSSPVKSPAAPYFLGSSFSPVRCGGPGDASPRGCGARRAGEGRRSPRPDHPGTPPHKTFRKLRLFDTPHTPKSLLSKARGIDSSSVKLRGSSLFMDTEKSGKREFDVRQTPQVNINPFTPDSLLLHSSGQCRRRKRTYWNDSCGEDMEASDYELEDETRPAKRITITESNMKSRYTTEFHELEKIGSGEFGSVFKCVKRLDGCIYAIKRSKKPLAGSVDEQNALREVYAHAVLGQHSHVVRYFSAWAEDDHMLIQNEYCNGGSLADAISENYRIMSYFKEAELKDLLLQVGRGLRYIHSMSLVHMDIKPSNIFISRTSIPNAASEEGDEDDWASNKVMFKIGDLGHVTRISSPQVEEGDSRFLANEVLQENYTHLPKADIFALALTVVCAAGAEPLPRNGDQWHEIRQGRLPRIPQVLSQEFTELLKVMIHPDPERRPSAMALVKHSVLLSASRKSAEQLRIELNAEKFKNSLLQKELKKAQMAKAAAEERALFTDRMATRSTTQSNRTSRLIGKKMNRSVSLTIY
# assay.protocol: Wee1 time-resolved fluorescence equilibrium binding assay (displacement of Oregon Green-labeled ATP-competitive kinase probe)
pKi: −log10 of the molar value.
observation.type: pKi

1) Cn1ccnc1-c1nn(-c2c(Cl)cccc2Cl)c(=O)c2cnc(Nc3ccc4c(c3)CNCC43CC3)nc12 [Example 356]	9.00
2) CN1CCN(c2ccc(Nc3ncc4c(=O)n(-c5c(Cl)cccc5Cl)nc(-c5ccccc5F)c4n3)cc2)CC1 [Example 45]	9.00
3) Cc1ccccc1-n1nc(-c2ccco2)c2nc(Nc3ccc(N4CCN(C(C)C)CC4)cc3)ncc2c1=O [Example 107]	9.00

====

# experimental.system: GST-tagged-Wee1 kinase (Homo sapiens)
# assay.protocol: Wee1 time-resolved fluorescence equilibrium binding assay (displacement of Oregon Green-labeled ATP-competitive kinase probe)
pKi: −log10 of the molar value.
Item-by-item account of pKi
observation.type: pKi

1. Cc1ccccc1-n1nc(CCc2ccccc2)c2nc(Nc3ccc(N4CCN(C)CC4)cc3)ncc2c1=O	8.22
2. O=C1CCCN1c1ccc(Nc2ncc3c(=O)n(-c4ccccc4Cl)nc(-c4ccccc4)c3n2)cc1	8.70
3. CN1CCN(c2ccc(Nc3ncc4c(=O)n(-c5ccccc5)nc(-c5ccc(Cl)cc5Cl)c4n3)cc2)CC1	6.40
4. CC(=O)N1CCN(c2ccc(Nc3ncc4c(=O)n(-c5c(Cl)cccc5Cl)nc(-c5ccccn5)c4n3)cc2)CC1	9.17
5. Cc1nn(-c2c(Cl)cccc2Cl)c(=O)c2cnc(Nc3ccc4c(c3)CN(C)CC4)nc12	9.96
6. Cc1nn(-c2c(Cl)cccc2Cl)c(=O)c2cnc(Nc3cccc(NC4CCN(C)CC4)c3)nc12	9.89
7. CN1CCN(c2ccc(Nc3ncc4c(=O)n(-c5c(Cl)cccc5Cl)nc(C5CCCC5)c4n3)cc2)CC1	9.00
8. O=c1c2cnc(Nc3ccc4c(c3)CNCC43CC3)nc2c(C2CC2)nn1-c1c(Cl)cccc1Cl	9.03
9. CN1CCCC(n2nc(-c3ccccn3)c3nc(Nc4ccc5c(c4)CNCC5(C)C)ncc3c2=O)C1 (stereo not drawn)	6.31
10. O=c1c2cnc(Nc3ccc4c(c3)CNCC4)nc2c(-c2ccccn2)nn1-c1c(Cl)cccc1Cl	10.00
11. CCc1nn(-c2c(Cl)cccc2Cl)c(=O)c2cnc(Nc3ccc(N4CCNC(=O)C4)cc3)nc12	9.00
12. Cc1nn(-c2c(Cl)cccc2Cl)c(=O)c2cnc(Nc3ccc(C4CCCNC4)cc3)nc12 (stereo not drawn)	9.77

====

# experimental.system: GST-tagged-Wee1 kinase (Homo sapiens)
# assay.protocol: Wee1 time-resolved fluorescence equilibrium binding assay (displacement of Oregon Green-labeled ATP-competitive kinase probe)
pKi: −log10 of the molar value.
observation.type: pKi

1) CCOc1cccc(-c2nn(-c3c(F)cccc3Cl)c(=O)c3cnc(Nc4ccc(N5CCN(C)CC5)cc4)nc23)n1	9.00
2) CCc1nn(-c2c(Cl)cccc2Cl)c(=O)c2cnc(Nc3ccc4c(c3)C(C)(C)N(C)CC4)nc12	9.17
3) Cc1nn(-c2c(Cl)cccc2Cl)c(=O)c2cnc(Nc3ccc4c(c3)CCN(C(=O)C(C)(C)O)C4)nc12	9.10
4) CS(=O)(=O)N1CCN(c2ccc(Nc3ncc4c(=O)n(-c5c(Cl)cccc5Cl)nc(-c5ccccn5)c4n3)cc2)CC1	8.89
